This listing pairs binders with measured EC50 of hC3 cleavage.
Molecular target: plasma purified human complement protein C3 (human) (UniProt P01024)
Sequence (P01024 23-667, chain 1 of 2): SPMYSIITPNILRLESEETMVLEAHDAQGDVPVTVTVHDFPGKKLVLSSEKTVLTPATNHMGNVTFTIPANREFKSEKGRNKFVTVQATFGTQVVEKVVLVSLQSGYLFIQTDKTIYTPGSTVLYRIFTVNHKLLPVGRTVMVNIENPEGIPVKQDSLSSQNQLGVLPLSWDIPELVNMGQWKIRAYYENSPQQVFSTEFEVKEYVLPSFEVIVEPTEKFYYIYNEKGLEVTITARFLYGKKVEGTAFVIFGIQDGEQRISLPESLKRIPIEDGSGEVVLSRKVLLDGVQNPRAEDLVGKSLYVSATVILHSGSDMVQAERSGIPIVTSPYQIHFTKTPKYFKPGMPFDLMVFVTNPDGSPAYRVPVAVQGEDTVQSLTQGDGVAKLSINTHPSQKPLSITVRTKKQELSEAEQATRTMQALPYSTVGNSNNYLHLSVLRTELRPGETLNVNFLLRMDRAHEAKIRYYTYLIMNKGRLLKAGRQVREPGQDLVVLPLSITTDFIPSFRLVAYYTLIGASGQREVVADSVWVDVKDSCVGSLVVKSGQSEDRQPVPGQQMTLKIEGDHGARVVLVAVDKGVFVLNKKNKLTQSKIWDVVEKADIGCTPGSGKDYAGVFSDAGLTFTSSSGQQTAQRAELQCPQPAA
Sequence (P01024 672-1663, chain 2 of 2): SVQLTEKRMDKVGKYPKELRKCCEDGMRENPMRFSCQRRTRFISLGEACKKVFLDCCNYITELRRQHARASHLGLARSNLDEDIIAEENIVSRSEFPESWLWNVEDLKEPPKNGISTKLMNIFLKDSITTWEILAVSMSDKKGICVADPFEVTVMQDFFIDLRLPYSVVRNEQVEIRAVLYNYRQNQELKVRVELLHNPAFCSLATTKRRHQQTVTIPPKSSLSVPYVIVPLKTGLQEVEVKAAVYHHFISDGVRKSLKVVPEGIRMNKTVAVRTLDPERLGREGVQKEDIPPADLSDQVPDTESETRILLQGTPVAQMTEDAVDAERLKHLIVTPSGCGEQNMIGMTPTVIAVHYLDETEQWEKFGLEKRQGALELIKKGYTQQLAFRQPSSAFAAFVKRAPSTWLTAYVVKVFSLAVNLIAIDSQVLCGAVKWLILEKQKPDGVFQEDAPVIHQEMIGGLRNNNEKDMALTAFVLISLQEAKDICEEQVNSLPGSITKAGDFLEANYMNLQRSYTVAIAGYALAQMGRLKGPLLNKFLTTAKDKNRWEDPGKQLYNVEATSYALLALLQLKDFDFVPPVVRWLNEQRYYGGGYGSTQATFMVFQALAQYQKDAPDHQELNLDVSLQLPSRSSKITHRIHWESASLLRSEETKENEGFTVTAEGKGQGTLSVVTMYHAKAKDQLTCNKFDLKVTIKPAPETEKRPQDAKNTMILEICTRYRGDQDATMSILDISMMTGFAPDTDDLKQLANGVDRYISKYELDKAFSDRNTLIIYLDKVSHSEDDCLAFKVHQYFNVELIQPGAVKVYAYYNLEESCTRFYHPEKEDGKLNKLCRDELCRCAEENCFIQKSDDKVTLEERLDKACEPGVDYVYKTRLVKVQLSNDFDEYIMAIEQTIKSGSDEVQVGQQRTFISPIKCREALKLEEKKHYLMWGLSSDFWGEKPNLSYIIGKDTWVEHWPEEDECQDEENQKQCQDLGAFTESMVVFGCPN
Assay: cell-based or functional assay
Please reply with the bare figure in nM and do not write the unit itself.

{"BINDER": "MTSP-1 ins97aY/F97H/F99L/C122S/Q175M/Q192A/D217V (enzyme) VVGGTDADEGEWPWQVSLHALGQGHICGASLISPNWLVSAAHCYIDDRGFRYSDPTQWTAFLGLHDQSQRSAPGVQERRLKRIISHPFFNDHYTLDYDIALLELEKPAEYSSMVRPISLPDASHVFPAGKAIWVTGWGHTQYGGTGALILQKGEIRVINQTTCENLLPQMITPRMMCVGFLSGGVDSCAGDSGGPLSSVEADGRIFQAGVVSWGVGCAQRNKPGVYTRLPLFRDWIKENTGV", "READING": 5.72}

Now consider a different binder.
EC50 of hC3 cleavage measured on MTSP-1 I41R/ins97aE/F97T/T98G/F99L/C122S/G151D/Q175T/Q192D (enzyme) VVGGTDADEGEWPWQVSLHALGQGHRCGASLISPNWLVSAAHCYIDDRGFRYSDPTQWTAFLGLHDQSQRSAPGVQERRLKRIISHPFFNDTEGLDYDIALLELEKPAEYSSMVRPISLPDASHVFPAGKAIWVTGWGHTQYGGTDALILQKGEIRVINQTTCENLLPQTITPRMMCVGFLSGGVDSCDGDSGGPLSSVEADGRIFQAGVVSWGDGCAQRNKPGVYTRLPLFRDWIKENTGV = 1620
